Entries and their measured solubility kinetic follow.
details: buffer; pH 7.4; 6.0 h; 150.0 µM
property.measured: solubility kinetic

CC(C)(C)n1cnc2cc(C(=O)N3CCCCC3)ccc21; > 42 µg/mL
CC(=O)N1CCC2(CCCN(c3ccc(-c4ccccc4)cc3)C2)CC1; < 1 µg/mL
Cn1c2ccccc2c(=O)c2c(=O)n(-c3ccccc3)c(C3CCCCC3)nc21; < 1 µg/mL
O=C(O)c1cccc(-c2cnc3ccccc3c2)c1; > 37 µg/mL
COc1ccc2c(ccn2CCC(=O)Nc2ccc3c(c2)C(=O)N2CCC[C@H]2C(=O)N3)c1; > 43 µg/mL
O=C(O)c1cn(C2CC2)c2cc(N3C[C@@H]4C[C@H]3CN4)c(F)cc2c1=O; > 51 µg/mL
